- Tested on: BRIS/87/HEPU/713
- test.description: Giardia dose response assay, assemblage A
- Type: cell-based
- run.parameters: Giardia duodenalis, read-out: 24 h IC50, 24 h
measured.quantity: pIC50
Recall that pIC50 is obtained by taking minus log10 of the concentration measured in molar.

Form field - read-out: pIC50; system: BRIS/87/HEPU/713; submitted item: `Cc1ccc(C(=O)Nc2ccc3c(c2)N(C)C(=O)c2ccccc2O3)cc1`
6.79

====

A collection of compounds and their measured % Inhibition n=1 48h
- Tested on: G. duodenalis BRIS/91/HEPU/1279
- test.description: Primary Giardia screen at 10 µM (live-cell imaging, automated counting)
- Assay type: cell-based, Giardia duodenalis
- run.parameters: 48 h, first singlicate assay
Lab book: enter the figure in %, no units written.

Any idea what its % Inhibition n=1 48h is? The compound is `Cc1sc2cc(C(=O)NC(C)(C)C)[nH]c2c1CN1CCOCC1`
2.4

Proceed to `O=C(Cn1c2ncccc2c(=O)n1-c1ccccc1)NC1CCCC1`
18.2

Proceed to `Cc1ccc(NC(=O)c2cnc3c(c2)c(=O)n(C)c(=O)n3-c2ccccc2)cc1`
0.0

Proceed to `Cc1sc2nc(CN3CCC(C)CC3)nc(N(C)Cc3nc4ccsc4c(=O)[nH]3)c2c1C`
11.1

Proceed to `CCCS(=O)(=O)N1CCc2c(c(-c3nnc(-c4ccc(F)cc4)o3)nn2C)C1`
0.0

====

- System: Klebsiella pneumoniae (ATCC 700603)
- test.description: Anti-bacterial activity assay
- Format: cell-based
- run.parameters: ATCC700603, 50 µM, read-out: Bacterial Inhibition K. pneumoniae
measured.quantity: inhibition at 50 µM
The reply must contain the numeric value and, after it, the unit.

Worked examples follow.
CN(C)CCn1cc(C(=O)c2cc(Cl)ccc2O)cc1-c1nc2ccccc2c(=O)[nH]1; -1.96%
COc1c(C)cnc(Cn2cnc([N+](=O)[O-])c2)c1C; 8.15%
O=C(Cc1csc2nc(-c3ccccc3)cn12)Nc1ccc(Cl)cc1; 3.63%
O=[N+]([O-])c1ccc(N2CCC(c3ncc[nH]3)CC2)c2ccncc12; 15.6%

Any idea what its inhibition at 50 µM is? The compound is `CCc1nnc2c3ccccc3nc(N3CCN(c4cccc(Cl)c4)CC3)n12`
22.1%

Proceed to `COc1cccc(Nc2c3c(nc4ccccc24)CCC3)c1`
-3.07%

====

A collection of molecules and their measured % Inhibition n=1 48h
- Tested on: G. duodenalis BRIS/91/HEPU/1279
- test.description: Primary Giardia screen at 10 µM (live-cell imaging, automated counting)
- Assay type: cell-based, Giardia duodenalis
- run.parameters: 48 h, first singlicate assay
Lab book: enter the figure in %, no units written.

Cc1sc2c(c1C)C(c1ccc(F)cc1)=NCC(=O)N2CC(=O)Nc1ccc(Cl)cc1; 0.0
CC(C)n1c(=O)c2cn(S(=O)(=O)c3ccccc3)nc2n(C(C)C)c1=O; 5.9
Cc1cc(-c2cc(S(=O)(=O)N(CCN(C)C)Cc3cccs3)c(C)s2)[nH]n1; 13.6
CC(=O)Nc1ccc(C(=O)OCc2cc(-c3cccs3)on2)s1; 14.0
O=C(c1nnn(-c2ccccc2Cl)c1-c1ccncc1)N1CCc2ccccc2C1; 30.9
CCN(CC)S(=O)(=O)c1ccc(Nc2ccn(CCc3ccccn3)n2)c([N+](=O)[O-])c1; 39.2

Any idea what its % Inhibition n=1 48h is? The molecule is `O=C(N1CCC(CCOCc2cccc(F)c2)CC1)C1(c2ccccc2)CC1`
0.0

Proceed to `O=C(NCCC1=CCCCC1)C1CCN(c2nc3cccnc3n(Cc3ccccc3)c2=O)CC1`
11.4

Proceed to `CCOC(=O)c1cccc(Nc2ncccc2S(N)(=O)=O)c1`
70.8

Proceed to `CCOC(=O)CC(=O)Nc1ccc(-c2onc3c2CCc2cc(OC)ccc2-3)cc1`
5.3

Proceed to `Cc1c(C)n(-c2ccccc2)c2ncnc(N3CCC(C)CC3)c12`
35.2

Proceed to `CCCCn1c(=O)[nH]c(=O)c2c1nc(-c1ccc(-c3ccc([N+](=O)[O-])cc3Cl)o1)n2C`
19.8

Proceed to `Cc1nc(C2CCN(C(=O)Nc3ccccc3)CC2)sc1C(=O)N1CCCCCC1`
0.0

Proceed to `Cc1ccc(NS(=O)(=O)c2c(C)n[nH]c2C)cc1`
8.8

====

- Test system: G. duodenalis BRIS/91/HEPU/1279
- test.description: Primary Giardia screen at 10 µM (live-cell imaging, automated counting)
- Type: cell-based, Giardia duodenalis
- run.parameters: 48 h, first singlicate assay
measured.quantity: % Inhibition n=1 48h (%)
Lab book: enter the figure in %, no units written.

Any idea what its % Inhibition n=1 48h is? The molecule is `Cc1nn(C(C)C)c(C)c1S(=O)(=O)N1CCN(C(=O)c2cccs2)CC1`
3.8

Proceed to `Cc1nc(N(C)C)cc(N2CCN(C(=O)Nc3cccc(C(F)(F)F)c3)CC2)n1`
55.4

====

- Test system: Neonatal foreskin fibroblast (NFF) cells
- test.description: Mammalian cell cytotoxicity assay (sulforhodamine B)
- Format: cell-based, human
- run.parameters: Homo sapiens, NFF; 20 µM; ±SD
measured.quantity: inhibition at 20 µM (%)
Lab book: enter the figure in %, no units written.

Worked examples follow.
O=[N+]([O-])c1cc(F)ccc1Sc1nnc(N2CCOCC2)s1 [SN00781107, Fc1ccc(Sc2nnc(s2)N2CCOCC2)c(c1)N(=O)=O]; -19.8
Cc1ccc(NC(=O)c2cc3c(Cl)ccc4c3n2CCO4)cc1; 31.4
O=C(Cc1csc2nc(-c3ccccc3)cn12)Nc1ccc(Cl)cc1; 29.7
O=[N+]([O-])c1ccc(N2CCC(c3ncc[nH]3)CC2)c2ccncc12; 1.2
O=C(Nc1nc(-c2ccco2)c(-c2ccco2)s1)c1ccccc1; 24.8

Any idea what its inhibition at 20 µM is? The molecule is `CC(C)c1ccc(Nc2ncccc2S(=O)(=O)N2CCCC2)cc1`
11.4

Proceed to `COc1cccc(Nc2c3c(nc4ccccc24)CCC3)c1`
75.1

====

- System: G. duodenalis BRIS/91/HEPU/1279
- test.description: Primary Giardia screen at 10 µM (live-cell imaging, automated counting)
- Format: cell-based, Giardia duodenalis
- run.parameters: 48 h, first singlicate assay
Please use Met whenever % Inhibition n=1 48h is not below 0.3%, and Not met whenever it is.

Cc1ccc2c(=O)c(C(=O)N3CCSCC3)c[nH]c2n1; Met
CSc1ccccc1NC(=O)C1CCN(S(C)(=O)=O)c2ccccc2O1 (stereo not drawn); Met
CC(C)(C)c1ccc(C(=O)N2CCC3(CC2)NC(c2ccccc2)=NO3)cc1; Not met
COc1cc(C(=O)N2C(=O)N(c3ccc(F)cc3)C3(C)CC2c2ccccc2O3)cc(OC)c1OC (stereo not drawn); Met
Cc1ccc(-c2cc(C(F)F)n3ncc(C(=O)NCc4cnn(C)c4C)c3n2)cc1; Not met

Item `CSc1ccc(-c2csc(CN3CCN(C(C)=O)CC3)n2)cc1` with % Inhibition n=1 48h of 0.3% or above?
Met

Proceed to `CSc1ccc(CCNC(=O)c2ccc3c(c2)nc2n3CCOC2)cc1`
Met

Proceed to `Cc1ccc(CNC(=O)C2CCN(c3ncccc3-n3cccc3)CC2)cc1`
Not met

Proceed to `CCCCNc1ncccc1-c1nc(-c2ccc(C)cc2)no1`
Met

Proceed to CC(=O)C1=C(C)NC(=O)NC1c1ccc(Cl)cc1 (stereo not drawn)
Met

Proceed to `Cc1ccc(C)c(NC(=O)N2CCC(c3c[nH]c4ncccc34)CC2)c1`
Not met

Proceed to `Cc1ccc(C)c(NC(=O)Cc2nc(Cn3cnc([N+](=O)[O-])c3)cs2)c1`
Met

Proceed to CCNC(=O)N1CCCC(c2cccc(C(=O)NCCC3=CCCCC3)c2)C1 (stereo not drawn)
Met

Proceed to `CCCNC(=O)c1cc(-c2ccc(F)cc2)on1`
Not met

Proceed to `CC(C)(C)c1nc(CN2CCCN(C(=O)CCCNC(=O)NC3CCCCC3)CC2)no1`
Met

Proceed to Cc1ccc2oc(-c3noc(C(=O)NCC4CCCO4)n3)c(C)c2c1 (stereo not drawn)
Not met

Proceed to Cc1ccc(N2CC(C(=O)N3CCCC3c3nc(-c4cccc(C)c4)no3)CC2=O)cc1 (stereo not drawn)
Not met

Proceed to `Cc1ccc(-c2nc(-c3cccnc3)sc2CC(=O)Nc2ccc3nc(C)sc3c2)cc1`
Not met

Proceed to `CCOC(=O)N1CCN(C(=O)c2nn(-c3ccccc3)c3c2CCC3)CC1`
Met

Proceed to O=C(NC(c1ccccc1)C1CC1)c1ccc2c(c1)S(=O)(=O)Nc1ncnn1-2 (stereo not drawn)
Not met

Proceed to `O=C(Cn1c(=O)c(=O)n(Cc2ccccc2)c2ccccc21)NCCCN1CCCC1`
Met

Proceed to `COc1ccc(CNC(=O)c2[nH]c3cc(C)sc3c2CN2CCCC2)cc1`
Met

Proceed to `O=C(Cc1scnc1-c1cccs1)N1CCN(c2ccccn2)CC1`
Not met

Proceed to Cc1nc(-c2cccc(N3CC(C(=O)NCc4ccccc4)CC3=O)c2)no1 (stereo not drawn)
Not met

This collection of values is drawn from paper PMC9775191.
